# Target Or Test System: natural Fel d1 (cat (Felis domesticus)) (UniProt P30438)
# Measurement Description: SPR, mAb captured, nFel d1 injected, 25 C
Measured Property: t1/2 (min)
// units = min; emit number, no label

Recorded t1/2, per entry:
Binder	Unit Name	t1/2
H2M1242N (antibody, mouse IgG2, V domains shown) VH: EVQLVESGGGLVRPGGSLRLSCAASGFTFTSYAMNWVRQAPGKGLEWVSSISSYSSYIYIADSVKGRFTLSRDNAKNSLYLQMHSLRPEDTAVYFCAREGYSAYSYFDFWGRGTLVTVSS VL: DIQMTQSPSTLSASVGDRVTITCRASQSVISWLAWYQQKPGKAPKLLIHRASSLESGVPSRFSGSGSGTEFTLTISGLQPDDFATYYCQQYNTYFPTFGQGTKVEVK	min	19
H4H2607B (antibody, human IgG4, V domains shown) VH: EVQLVESGGGLVKPGGSLRLSCAASGFTFSDYYMNWIRQAPGKGLEWISYLSSSGSATYYADSVKGRFTISRDNAKNSLYLQMNSLRAEDTAVYYCARDGKYNTVAGDYWGQGTTVTVSS VL: DIQLTQSPSSLSASVGDRVTITCRASQGIRNDLGWYQQKPGKAPKRLIYAASSLQSGVPSRFSGSGSGTEFTLTISSLQPEDFATYYCLQHNSYPYTFGQGTKVEIKR	min	13
H2M1233N (antibody, mouse IgG2, V domains shown) VH: QVVLVESGGGVVQPGRSLRLSCAASGFTFSSYGMHWVRQAPGKGLEWVAVIWYDGSNKYYVDSVKGRFTISRDNSNNTIYLQMNSLRAEDTAVYYCARSLIPVAGTDPIFGYWGQGTLVTVSS VL: DIQMTQSPSTLSASVGDRVTITCRASQSVSSWLAWYQQKPGKAPKLLIFKASGLESGVPFRFSGSGSGTEFTLTISSLQPDDFATYYCQQYNTYSPTFGQGTKVEIK	min	33
H2M1236N (antibody, mouse IgG2, V domains shown) VH: QVQLQESGPGLVKPSETLSLTCTVSGGSISNYYWSWIRQPPGKGLEWIGYIYYSGRTNYNPSLKSRVTISVDTSKNQFSLKLRSVTAADTAVYYCARHRITRTADSFDYWGQGTLVTVSS VL: DIQMTQSPSSLSASVGDRVTITCQASQDITNYLNWYQQKPGKAPKLLIYDASNLETGVPSRFSGSGSGTDFTFTISSLQPEDVATFYCHQYGDLPYTFGQGTKLEIK	min	8

Now let's try a different one.
**Q:** Entry H4H2797P (antibody, human IgG4, V domains shown) VH: QVQLVESGGGVVLPGRSLRLSCAASGFTFSSYLMYWVRQAPGKGLEWVAVIWYDGSNKFYGDSVKGRFTISRDNSKNTLYLQMNSLRAEDTAVYYCARDNGNSGYEDSWNAFDIWGQGTMVTVSS VL: DIQMTQSPSSLSASVGDRVTITCRASQDIYNYLAWFQQKPGKAPKSLIYAASSLQTGVPSQFSGSGSGTDFTLTISSLQPEDFATYYCQQYNNYPFTFGPGTKVDIK has what t1/2?
**A:** 2
